# key: entry, value: growth inhibition
Assay: NCI Yeast Anticancer Drug Screen. Data for the wt1 strain (AID 149);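 also: 0% = growth of vehicle-treated wt1 cultures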
Conditions: S. cerevisiae wt1 strain (SPY 50644) growth inhibition; at 1.2 µM; hits give high values
Compounds without any hit were thinned out: in the full panel of roughly 79,000, 15% have a hit.
Give just the number in %; leave the unit off.

CCCCCC#CCOC(=O)C(=[N+]=[N-])P(=O)(c1ccccc1)c1ccccc1 ... 3

Request: So what's the measured growth inhibition for this one? `COC(=O)/C=C1/OC(c2ccc(Br)cc2)=C(Br)C1=O`
Response: -16

* * *

# key: entry, value: growth inhibition
Assay: NCI Yeast Anticancer Drug Screen. Data for the rad50 strain (AID 155);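 also: 0% = growth of vehicle-only cultures of the same strain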
Settings: S. cerevisiae rad50 strain growth inhibition; at 3.7 µM; hits give high values
Compounds without any hit were thinned out: in the full panel of roughly 79,000, 15% have a hit. Active and inactive are the calls of the source. No stated cut-off is given here; in the data, active means growth inhibition above about 70%; inactive means the rest.

Field: example entries. Status: answers known.
O=Cc1coc2ccccc2c1=O ... 10% (inactive)
Nc1nc2c(c(=O)[nH]1)NC(CCNc1ccc(C(=O)O)cc1)CN2 (stereo unspecified) ... 2% (inactive)
O=C1c2ccccc2C(=O)c2cc(S(=O)(=O)Nc3ccccc3)ccc21 ... 7% (inactive)
Cc1cc(C(C)(C)CC(C)(C)C)cc(O)c1O ... 12% (inactive)

Request: So what's the measured growth inhibition for this one? `CCOC(=O)Nc1ccc2c(c1)Cc1ccccc1-2`
Response: -14% (inactive)

Request: So what's the measured growth inhibition for this one? `CCOC(=O)C1=C(C)NC(C)=C(C(=O)OCC)C1c1ccccc1Cl`
Response: 23% (inactive)

* * *

Test: NCI Yeast Anticancer Drug Screen. Data for the mgt1 strain (AID 153)
Conditions: S. cerevisiae mgt1 mutant growth inhibition; at 3.7 µM; hits give high values
This is part of a sample that, as a whole, favours compounds with a hit. Of some 79,000 tested, about 15% had one in any assay.
# key: entry, value: growth inhibition
Give just the number in %; leave the unit off.

Field: example entries. Status: answers known.
N#CC(=C1C=CC(=NO)C=C1)c1ccccc1 ... 24
Cc1cc(O)c2c(c1O)C(=O)C13C(=C2O)C(=O)C2C(O)C1C1C(O)C3C(=O)C3=C(O)c4c(O)cc(C)c(O)c4C(=O)C321 (stereo unspecified) ... 26
Nc1ccc(S(=O)(=O)Nc2ccc(Nc3c4ccccc4nc4ccccc34)cc2)cc1 ... 4

Request: So what's the measured growth inhibition for this one? `O=NN(CCCl)C(=O)NCCCl`
Response: -2

Request: So what's the measured growth inhibition for this one? `Cc1ccc(Nc2n[nH]c(=S)s2)cc1`
Response: -5

Request: So what's the measured growth inhibition for this one? `O=c1[nH]c2ccccc2c2nc3ccccc3n12`
Response: -14

Request: So what's the measured growth inhibition for this one? `S=P(N1CC1)(N1CC1)N1CC1`
Response: -2

Request: So what's the measured growth inhibition for this one? `COc1ccc(C(C#N)=C2C=CC(=NO)C=C2)cc1`
Response: 18

Request: So what's the measured growth inhibition for this one? `CCCCCC(=O)c1ccc(O)cc1O`
Response: -2

Request: So what's the measured growth inhibition for this one? `O=C(NC(=S)Nc1ccccn1)c1ccccc1`
Response: -40

Request: So what's the measured growth inhibition for this one? `CC(=O)c1cc2c(Cl)cc(Cl)cc2oc1=O`
Response: 5

Request: So what's the measured growth inhibition for this one? CC(=O)[C@]1(O)Cc2c(O)c3c(c(O)c2[C@@H](OC2CC(N)C(O)C(C)O2)C1)C(=O)c1c(OCc2ccccc2)cccc1C3=O (stereo partly specified)
Response: 8

Request: So what's the measured growth inhibition for this one? `CCOc1ccc(C(=O)CCC(=O)O)c(C)c1`
Response: -3

Request: So what's the measured growth inhibition for this one? `CSc1s[s+]c(SC)c1-c1ccccc1`
Response: 28

Request: So what's the measured growth inhibition for this one? `S=c1[nH]c2c(Cl)c(Cl)c(Cl)c(Cl)c2[nH]1`
Response: 15

Request: So what's the measured growth inhibition for this one? `O=C(O)c1cccc2cccc(-c3c4ccc(=O)cc-4oc4cc(O)ccc34)c12`
Response: 41

Request: So what's the measured growth inhibition for this one? `O=C(CNS(=O)(=O)Cc1ccccc1)NNc1ccccc1`
Response: 12

Request: So what's the measured growth inhibition for this one? Cc1cc(C)c(N2C(=O)CC(Sc3ccccc3N)C2=O)c(C)c1 (stereo unspecified)
Response: -57

Taken from PubChem BioAssay (NCI).
